Assay: Solubility in Citrate Buffer pH 4
Conditions: 25 °C, pH 4, aqueous buffer, thermodynamic from solid
QUANTITY NAME: solubility at 24 h

For reference, reported solubility at 24 h for CCc1c(N2CC[C@H](O)C2=O)cccc1S(=O)(=O)N[C@@H](CNC(=O)c1ccc(Cl)s1)C(=O)OCCc1nccn1C.Cl [Example 2] stands at > 500 mg/mL
